- Assay Explanation: label from the status in PepcDB records

[
  {
    "Chain": "MSYGLIIVLMIILGIGLWHTKKYHRAVVNQVAHVWITKNAFEHTALGMAIVSPDCRFLKVNRAYGEITGYTRPELLKMAVKELTHPEDQEKDTPYLQEVFAGNIHSFTTVKRYIHKNGSTIWVRSTISAVRTERGNLKYFVAQIQDMTIAKNAEDELRKSRDNAEVLARTDYLTKTLNRRAFIERLQEELERTKRTQEGFAMILVDIDYFKKVNDQFGHLAGDYVLQKFADCLSNNVRPYDFIGRYGGEEFIICLPDTDVEQAALVAERMRESVEALEVDYLHAQIKVTGSFGVAVYDSHSSDTLDELIEKADGAMYVAKNHKNTVYQWVS",
    "protein production": "failed"
  },
  {
    "Chain": "MTKYGVVGTGYFGAELARFMSKVEGAKITAIYDPVNAAPIAKELNCVATATMEALCTHPDVDCVIIASPNYLRKAPVIAAAKAGKHVFCEKPIALNYQDCKDMVDACKEAGVTFMAGHVMNFFHGVRHAKALIKAGEIGEVTQVHTKRNGFEDVQDEISWKKIRAKSGGHLYHHIHELDCTLFIMDETPSLVSMAAGNVAHKGEKFGDEDDVVLITLEFESGRFATLQWGSSFHYPEHYVLIEGTTGAILIDMQNTAGYLIKAGKKTHFLVHESQAEDDDRRNGNISSEMDGAIAYGKPGKRTPMWLSSIMKLEMQYLHDVINGLEPGEEFAKLLTGEAATNAIATADAATLSSNEGRKVKLTEILG",
    "protein production": "failed"
  }
]

Hey, just so you know, these numbers are from a protein production outcome set (Wang et al. 2014).
